# SUBJECT OF TEST: T1, Homo sapiens factor Bb protein (human, UniProt P00751 260-764)
# T1 construct: Bought from CompTech (A155); also called complement factor Bb; human factor Bb
# MEASUREMENT NOTES: SPR single cycle kinetics, IgG on Protein A chip, factor Bb analyte
Catalogue of binders with associated pKd
Reminder that pKd means the negative base-10 logarithm of the concentration expressed in mol/L.

As a guide, the following entries are already answered.
>  <BINDER>
VH6/Vκ0 (antibody, V domains shown, Control antibody of the redesign round; cloned into the appropriate expression vector (IgG4v1 and kappa were used in the first round), HEK EBNA supernatant) VH: EVQLVESGGGLVKPGGSLRLSCAASGFTFSNYAMSWVRQAPGKRLEWVATISNRGSYTYYPDSVKGRFTISRDNAKNSLYLQMNSLRAEDTALYYCARERPMDYWGQGTLVTVSS VL: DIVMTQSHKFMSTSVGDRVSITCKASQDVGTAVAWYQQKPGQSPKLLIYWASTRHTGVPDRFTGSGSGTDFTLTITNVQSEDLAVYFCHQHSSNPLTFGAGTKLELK

>  <pKd>
8.48

$$$$
>  <BINDER>
VH0/Vκ3 (antibody, V domains shown, constant regions not restated, the humanisation used IgG4v1 heavy chain and kappa light chain vectors) VH: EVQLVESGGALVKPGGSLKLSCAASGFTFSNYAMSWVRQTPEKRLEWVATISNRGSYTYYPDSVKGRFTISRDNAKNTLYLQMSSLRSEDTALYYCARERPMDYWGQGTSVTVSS VL: DIQMTQSPSTLSASVGDRVTITCKASQDVGTAVAWYQQKPGQPPKLLIYWASTRHTGVPDRFSGSGSGTDFTLTISSLQAEDFAVYFCHQHSSNPLTFGQGTKLEIK

>  <pKd>
8.64

$$$$

Now for a further binder.
Quickly give me recorded pKd for VH7/Vκ6 (antibody, V domains shown, Redesigned variant; cloned into the appropriate expression vector (IgG4v1 and kappa were used in the first round), HEK EBNA supernatant) VH: EVQLVESGGGLVKPGGSLRLSCAASGFTFSNYAMSWVRQTPEKRLEWVATISNRGSYTYYPDSVKGRFTISRDNAKNSLYLQMNSLRAEDTALYYCARERPMDYWGQGTLVTVSS VL: DIVMTQSPSFLSASVGDRVTITCKASQDVGTAVAWYQQKPGKAPKLLIYWASTRHTGVPDRFTGSGSGTDFTLTISSLQSEDFAVYFCHQHSSNPLTFGQGTKLEIK
7.74
